system: Wolbachia pipientis; assay: Anti-Wolbachia Cell-Based Screen; assay type: functional; set-up: scale not given: in the data most compounds retested in dose-response had high values; conditions: 5 µM
The campaign covered roughly 48,000 compounds. About 13,000 (27%) showed an effect of 50% or more. The list shows a part of the results.
Can you tell me Percent Effect for the items I'm about to list?
Output spec: scalar in %, unitless text.

Enquiry: Fill blank: measured Percent Effect of the compound `CN1CCCN(C(=O)NCc2csc(Br)c2)CC1` is ____.
Return: -2.09

Enquiry: Fill blank: measured Percent Effect of the compound c1cncc(OCCCNC2COc3ccccc3C2)c1 (configuration not stated) is ____.
Return: 107.3

Enquiry: Fill blank: measured Percent Effect of the compound `O=C1NC(c2ccccc2)=N[C@@]12CC[C@@H]1CN(S(=O)(=O)C3CC3)C[C@@H]12` is ____.
Return: 2.973

Enquiry: Fill blank: measured Percent Effect of the compound COc1cccc2c1OCC(NCCCOc1cccnc1)C2 (configuration not stated) is ____.
Return: 86.98

Enquiry: Fill blank: measured Percent Effect of the compound `Cc1cnc(C(=O)N2CCN(C(=O)CC(C)C)[C@@H]3CS(=O)(=O)C[C@@H]32)cn1` is ____.
Return: -11.52

Enquiry: Fill blank: measured Percent Effect of the compound COc1cccc2c1OCC(NCCc1cnn(-c3ccccc3)c1)C2 (configuration not stated) is ____.
Return: -5.519

Enquiry: Fill blank: measured Percent Effect of the compound `Cn1c(-c2ccccc2Cl)nc2cc(C(=O)NCCOCCO)cnc21` is ____.
Return: -3.34

Enquiry: Fill blank: measured Percent Effect of the compound `Cc1nc2cc(=O)[nH]n2c(C)c1CNC(=O)c1cnn(C(C)(C)C)c1` is ____.
Return: -22.93

Enquiry: Fill blank: measured Percent Effect of the compound `CCc1nc(CN2CCCN(C(=O)c3cn[nH]c3CC)CC2)cs1` is ____.
Return: 9.391

Enquiry: Fill blank: measured Percent Effect of the compound COc1cccc2c1OCC(NCc1cnn(-c3ccccc3)c1)C2 (configuration not stated) is ____.
Return: -6.454

Enquiry: Fill blank: measured Percent Effect of the compound `c1cncc(OCCNC2Cc3ccccc3C2)c1` is ____.
Return: 2.244

Enquiry: Fill blank: measured Percent Effect of the compound `Cc1nc[nH]c1-c1nnc(SCC(=O)O)n1-c1ccccc1C(F)(F)F` is ____.
Return: -17.22

Enquiry: Fill blank: measured Percent Effect of the compound `Cc1[nH]c2ccccc2c1-c1ccnc(NC[C@H](O)CO)n1` is ____.
Return: 2.314

Enquiry: Fill blank: measured Percent Effect of the compound `CN(C)c1ncccc1CNC(=O)c1csc(Br)c1` is ____.
Return: -2.901

Enquiry: Fill blank: measured Percent Effect of the compound `COCCN1CCO[C@@H]2CN(C(=O)NCc3cccnc3)CC[C@@H]2C1.O=C(O)C(F)(F)F.O=C(O)C(F)(F)F` is ____.
Return: -7.719

Enquiry: Fill blank: measured Percent Effect of the compound `COc1ccc(S(=O)(=O)NC(=O)COC2CCCCC2)cc1` is ____.
Return: 100.4

Enquiry: Fill blank: measured Percent Effect of the compound CC(NCc1ccncc1)c1ccc(N2CCN(C)CC2)c(F)c1.Cl (configuration not stated) is ____.
Return: 1.312

Enquiry: Fill blank: measured Percent Effect of the compound `CCn1cc(C(=O)NCc2csc(Br)c2)cn1` is ____.
Return: -5.042

Enquiry: Fill blank: measured Percent Effect of the compound `CC(=O)N1CCO[C@@H]2CN(C(=O)NCc3cccnc3)CC[C@@H]2C1.O=C(O)C(F)(F)F` is ____.
Return: -5.554

Enquiry: Fill blank: measured Percent Effect of the compound `CC(=O)N1CCO[C@@H]2CN(C(=O)NCc3ccccc3)CC[C@@H]2C1` is ____.
Return: 88.95

Enquiry: Fill blank: measured Percent Effect of the compound CCCc1noc(CN(C)C(=O)C2COc3ccccc3C2)n1 (configuration not stated) is ____.
Return: -0.2082

Enquiry: Fill blank: measured Percent Effect of the compound `O=C(NCc1csc(Br)c1)c1cnccn1` is ____.
Return: 122.2
